Each recorded value in this set is attributed to patent US20260242478A1.

Molecular target: T1, Anti-CD28 Fab (SEQ ID NOs: 696, 697)
T1 construct: In the phage ELISA the Fab was biotinylated and captured on neutravidin coated plates
T1 sequence (VH, as listed by the source, chain 1 of 2): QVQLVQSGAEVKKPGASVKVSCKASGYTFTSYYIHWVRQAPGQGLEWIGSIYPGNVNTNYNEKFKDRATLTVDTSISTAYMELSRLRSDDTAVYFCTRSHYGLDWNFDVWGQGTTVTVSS
T1 sequence (VL, as listed by the source, chain 2 of 2): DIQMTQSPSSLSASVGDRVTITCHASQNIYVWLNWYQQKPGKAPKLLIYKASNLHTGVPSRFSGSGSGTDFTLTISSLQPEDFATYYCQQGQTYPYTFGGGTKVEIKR
Assay: phage binding ELISA; Fab-coated wells pre-incubated with CD28 antigen as competitor, anti-M13 HRP detection;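 note: crude clonal phage supernatants from panned colonies added to wells after blocking buffer plus CD28 treatment, bound phage measured after a brief incubation and washing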
Where no end group is shown, it is not given here.
READOUT_TYPE: Anti-CD28 Fab signal in the presence of CD28

# BINDER, VAL
rows = [
    ("YCQGHLPQYVEKCL (cysteine pairing not given here; also: displayed fused to phage pIII protein, fusion end and linker not given here, Clonal phage of the peptide-87 library, tested as crude supernatant; not shown: fused to the pIII filament protein of the bacteriophage) [Phage-984]", 0.08),
    ("YCDGHSQAHMQKCL (cysteine pairing not given here; also: displayed fused to phage pIII protein, fusion end and linker not given here, Clonal phage of the peptide-87 library, tested as crude supernatant; not shown: fused to the pIII filament protein of the bacteriophage) [Phage-992]", 0.08),
]
